Tested on: Quadruplex DNA
experimental.protocol: Binding affinity to parallel c-MYC Pu24T G4 DNA (unknown origin) assessed as thermal stabilization by measuring change in melting temperature at 5 uM measured at 1:1 DNA to ligand ratio by CD spectra analysis
Format: nucleic-acid assay
Catalogue of ΔTm values

>  <smiles.string>
Cc1cc(NCCCN2CCN(C)CC2)nc(Nc2nc(C)c3ccc4c(c3n2)CCC4)n1

>  <target.or.system>
Quadruplex DNA

>  <ΔTm, °C>
5

$$$$
>  <smiles.string>
Cc1cc(NCCCN2CCCC2)nc(Nc2nc(C)c3ccc4c(c3n2)CCCC4)n1

>  <target.or.system>
Quadruplex DNA

>  <ΔTm, °C>
8

$$$$
>  <smiles.string>
CCN(CC)CCCNc1cc(C)nc(Nc2nc(C)c3ccc4c(c3n2)CCCC4)n1

>  <target.or.system>
Quadruplex DNA

>  <ΔTm, °C>
7

$$$$
>  <smiles.string>
CCN(CC)CCCNc1cc(C)nc(Nc2nc(C)c3ccc4c(c3n2)CCC4)n1

>  <target.or.system>
Quadruplex DNA

>  <ΔTm, °C>
5

$$$$
>  <smiles.string>
Cc1cc(NCCCN2CCN(C)CC2)nc(Nc2nc(C)c3ccc4c(c3n2)CCCC4)n1

>  <target.or.system>
Quadruplex DNA

>  <ΔTm, °C>
6

$$$$
>  <smiles.string>
Cc1cc(NCCCN2CCCC2)nc(Nc2nc(C)c3ccc4c(c3n2)CCC4)n1

>  <target.or.system>
Quadruplex DNA

>  <ΔTm, °C>
5

$$$$
>  <smiles.string>
Cc1cc(NCCCN2CCCCC2)nc(Nc2nc(C)c3ccc4c(c3n2)CCC4)n1

>  <target.or.system>
Quadruplex DNA

>  <ΔTm, °C>
4

$$$$
>  <smiles.string>
Cc1cc(NCCCN2CCCCC2)nc(Nc2nc(C)c3ccc4c(c3n2)CCCC4)n1

>  <target.or.system>
Quadruplex DNA

>  <ΔTm, °C>
5

$$$$
